System: Wolbachia pipientis
protocol_notes: Anti-Wolbachia Cell-Based Screen
Format: functional
Parameters: scale not given: in the data most compounds retested in dose-response had high values
experimental_parameters: 5 µM
About 13,000 (27%) of roughly 48,000 compounds showed an effect of 50% or more. The list shows a part of the results.
measured_metric: Percent Effect (%)
Express it in %; write the number only.

Report Percent Effect on Wolbachia pipientis for this entry: CN(C)C[C@H]1C[C@@H](CO)CN(C(=O)CCc2nc(Cl)n[nH]2)C1
-2.145

Report Percent Effect on Wolbachia pipientis for this entry: O=C(NC[C@H]1OC[C@@H](NC2CCCCC2)[C@@H]1O)Nc1ccccc1
2.791

Report Percent Effect on Wolbachia pipientis for this entry: Cc1cnn(CC(=O)N2CCC3(CCC(=O)N(CC(C)O)C3)CC2)c1 (stereo not given)
-3.932

Report Percent Effect on Wolbachia pipientis for this entry: CNS(=O)(=O)CC(=O)N1CC2(CCCC2)c2c(F)cccc21
-10.56

Report Percent Effect on Wolbachia pipientis for this entry: Cn1nnc2c1CCN(S(C)(=O)=O)C2COCC1CC1 (stereo not given)
-21.64

Report Percent Effect on Wolbachia pipientis for this entry: CC(C)COC[C@H]1CC[C@H]2[C@H](CCN2C(=O)c2ccncc2F)O1.O=C(O)C(F)(F)F
108.1

Report Percent Effect on Wolbachia pipientis for this entry: Cc1nccn1CCC(=O)N1CCC2(CCC(=O)N(CC3CC3)C2)CC1
117.2

Report Percent Effect on Wolbachia pipientis for this entry: CCNC(=O)c1ccc(N2CCCC(c3nccn3C(C)C)C2)nc1 (stereo not given)
-0.11

Report Percent Effect on Wolbachia pipientis for this entry: CC(C)(C)c1cn2nc(N3CCOC(Cn4cncn4)C3)sc2n1 (stereo not given)
9.569

Report Percent Effect on Wolbachia pipientis for this entry: Fc1cnc(N2CC[C@@H]3O[C@@H](COCc4cccnc4)CC[C@@H]32)nc1.O=C(O)C(F)(F)F
-5.936

FYI, the data here is from ChEMBL document CHEMBL3988442.
